Data credit: patent US10544143B2

- EXPERIMENTAL_TARGET: human TLR7 (Homo sapiens (Human), UniProt Q9NYK1)
- Sequence (Q9NYK1 27-1049): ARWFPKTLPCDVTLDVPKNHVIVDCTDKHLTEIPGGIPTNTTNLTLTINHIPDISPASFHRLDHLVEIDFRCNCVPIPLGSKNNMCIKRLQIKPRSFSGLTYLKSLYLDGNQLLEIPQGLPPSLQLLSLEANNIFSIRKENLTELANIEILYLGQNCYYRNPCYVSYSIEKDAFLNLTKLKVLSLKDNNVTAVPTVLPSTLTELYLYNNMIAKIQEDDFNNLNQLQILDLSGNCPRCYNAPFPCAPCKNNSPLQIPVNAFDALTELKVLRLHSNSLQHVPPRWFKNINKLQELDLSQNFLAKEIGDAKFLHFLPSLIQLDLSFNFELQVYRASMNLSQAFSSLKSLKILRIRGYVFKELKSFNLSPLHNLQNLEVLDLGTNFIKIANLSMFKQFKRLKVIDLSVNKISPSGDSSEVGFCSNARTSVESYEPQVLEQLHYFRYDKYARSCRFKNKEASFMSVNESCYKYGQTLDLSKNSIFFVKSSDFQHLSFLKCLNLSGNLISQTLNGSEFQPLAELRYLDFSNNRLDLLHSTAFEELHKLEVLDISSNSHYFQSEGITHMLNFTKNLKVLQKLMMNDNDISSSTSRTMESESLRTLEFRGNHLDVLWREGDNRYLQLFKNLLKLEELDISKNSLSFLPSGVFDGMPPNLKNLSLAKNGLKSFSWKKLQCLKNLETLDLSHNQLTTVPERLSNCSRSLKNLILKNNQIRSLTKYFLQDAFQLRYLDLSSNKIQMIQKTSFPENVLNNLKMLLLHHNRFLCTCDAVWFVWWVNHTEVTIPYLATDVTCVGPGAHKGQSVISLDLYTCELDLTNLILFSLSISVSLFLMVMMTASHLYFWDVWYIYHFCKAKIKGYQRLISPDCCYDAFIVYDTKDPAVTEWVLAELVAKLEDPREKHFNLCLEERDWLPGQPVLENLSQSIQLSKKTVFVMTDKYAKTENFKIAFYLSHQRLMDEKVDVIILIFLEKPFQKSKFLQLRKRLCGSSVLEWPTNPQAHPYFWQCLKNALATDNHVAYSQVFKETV
- METHOD: TLR7 inhibition reporter assay (HEK-Blue SEAP)
- Type: cell-based
- CONDITION_INFO: HEK-Blue cells overexpressing human TLR7, gardiquimod 7.5 μM stimulation, SEAP reporter
Measured pIC50, listed per entry.
Here pIC50 is given on a logarithmic scale as minus log10 of the concentration in mol/L.

# input Return reported pIC50. Input compound: Cc1c(-c2[nH]c3ccc(N4CCN(C5CCOCC5)CC4)nc3c2C(C)C)cn2ncnc2c1C [Example 101]
# output 8.43

###

- EXPERIMENTAL_TARGET: human TLR9 (Homo sapiens (Human))
- METHOD: TLR9 inhibition reporter assay (HEK-Blue SEAP)
- CONDITION_INFO: read-out: TLR9 IC50; HEK-Blue human TLR9 cells, ODN2006 5 nM
MEASURE_NAME: log10 IC50 (log10 of the value in µM)
Lab note - IC50 converted to log10 from values in µM.

Here's what some known entries look like.
CCN(CC)CC(=O)N1C[C@H](C)N(c2ccc3[nH]c(-c4cn5ncnc5c(C)c4C)c(C(C)C)c3n2)C[C@H]1C	0.90
Cc1c(-c2[nH]c3ccc(N4CCC(N(C)CC5(C)COC5)CC4)nc3c2C(C)C)cn2ncnc2c1C	1.04

# input Give the measured log10 IC50 for Cc1c(-c2[nH]c3ccc(C4CCC(NC(C)(C)C)CC4)nc3c2C(C)C)cn2ncnc2c1C (stereo not drawn) [Example 1054]
# output 0.23

# input Supply reported log10 IC50 belonging to this compound: Cc1c(-c2[nH]c3ccc(C4CCC(N5CC(C)(O)C5)CC4)nc3c2C(C)C)cn2ncnc2c1C (stereo not drawn) [Example 1041]
# output 0.38

# input Check the records and state log10 IC50 for `Cc1c(-c2[nH]c3ccc(N4CCN(C(=O)CN5CC6(COC6)C5)C[C@@H]4C)nc3c2C(C)C)cn2ncnc2c1C`
# output 1.12

# input Report log10 IC50, nothing else, for this compound: COc1cc(-c2[nH]c3ccc(C4CCC(N5CCC6(COC6)C5)CC4)nc3c2C(C)C)cn2ncnc12 (stereo not drawn) [Example 1068]
# output 0.47

# input # return recorded log10 IC50 for input `Cc1c(-c2[nH]c3ccc(N4CCN(C(=O)CN5CCOCC5(C)C)CC4)nc3c2C(C)C)cn2ncnc2c1C`
# output 1.56

###

- EXPERIMENTAL_TARGET: human TLR9 (Homo sapiens (Human))
- METHOD: TLR9 inhibition reporter assay (HEK-Blue SEAP)
- CONDITION_INFO: read-out: TLR9 IC50; HEK-Blue cells overexpressing human TLR9, SEAP reporter, ODN2006 5 nM
MEASURE_NAME: IC50 (µM)
Record the value in µM, omitting the unit from your answer.

Cc1cc(-c2[nH]c3ccc(CCN4CCCCC4)nc3c2C(C)C)cn2ncnc12	4.24

# input Please supply the value of reported IC50 for the item Cc1c(-c2[nH]c3ccc(C4CCC(N(C)C(=O)CN(C)C)CC4)nc3c2C(C)C)cn2ncnc2c1C (stereo not shown) [Example 404]
# output 1.54

# input Provide IC50 value for the following molecule: `Cc1c(-c2[nH]c3ccc(N4C[C@H](C)N[C@@H](C)C4)nc3c2C(C)C)cn2ncnc2c1C`
# output 5.21

# input Write down IC50 measured for item `Cc1c(-c2[nH]c3ccc(N4CC5(CN(CC(=O)N(C)C)C5)C4)nc3c2C(C)C)cn2ncnc2c1C`
# output 4.58

# input Give me measured IC50, please, for this molecule: `Cc1cc(-c2[nH]c3ccc(C4CCNCC4)nc3c2C(C)C)cn2nnnc12`
# output 0.15

# input Give a short answer stating reported IC50 for `Cc1c(-c2[nH]c3ccc(N4C[C@H](C)N(CC(N)=O)[C@@H](C)C4)nc3c2C(C)C)cn2ncnc2c1C` .
# output 38.2

# input Retrieve IC50 measured for `COc1cc(-c2[nH]c3ccc(C4CCN(CCS(C)(=O)=O)CC4)nc3c2C(C)C)cn2ncnc12` and print it.
# output 2.86

###

- EXPERIMENTAL_TARGET: human TLR9 (Homo sapiens (Human), UniProt Q9NR96)
- Sequence (Q9NR96 26-1032): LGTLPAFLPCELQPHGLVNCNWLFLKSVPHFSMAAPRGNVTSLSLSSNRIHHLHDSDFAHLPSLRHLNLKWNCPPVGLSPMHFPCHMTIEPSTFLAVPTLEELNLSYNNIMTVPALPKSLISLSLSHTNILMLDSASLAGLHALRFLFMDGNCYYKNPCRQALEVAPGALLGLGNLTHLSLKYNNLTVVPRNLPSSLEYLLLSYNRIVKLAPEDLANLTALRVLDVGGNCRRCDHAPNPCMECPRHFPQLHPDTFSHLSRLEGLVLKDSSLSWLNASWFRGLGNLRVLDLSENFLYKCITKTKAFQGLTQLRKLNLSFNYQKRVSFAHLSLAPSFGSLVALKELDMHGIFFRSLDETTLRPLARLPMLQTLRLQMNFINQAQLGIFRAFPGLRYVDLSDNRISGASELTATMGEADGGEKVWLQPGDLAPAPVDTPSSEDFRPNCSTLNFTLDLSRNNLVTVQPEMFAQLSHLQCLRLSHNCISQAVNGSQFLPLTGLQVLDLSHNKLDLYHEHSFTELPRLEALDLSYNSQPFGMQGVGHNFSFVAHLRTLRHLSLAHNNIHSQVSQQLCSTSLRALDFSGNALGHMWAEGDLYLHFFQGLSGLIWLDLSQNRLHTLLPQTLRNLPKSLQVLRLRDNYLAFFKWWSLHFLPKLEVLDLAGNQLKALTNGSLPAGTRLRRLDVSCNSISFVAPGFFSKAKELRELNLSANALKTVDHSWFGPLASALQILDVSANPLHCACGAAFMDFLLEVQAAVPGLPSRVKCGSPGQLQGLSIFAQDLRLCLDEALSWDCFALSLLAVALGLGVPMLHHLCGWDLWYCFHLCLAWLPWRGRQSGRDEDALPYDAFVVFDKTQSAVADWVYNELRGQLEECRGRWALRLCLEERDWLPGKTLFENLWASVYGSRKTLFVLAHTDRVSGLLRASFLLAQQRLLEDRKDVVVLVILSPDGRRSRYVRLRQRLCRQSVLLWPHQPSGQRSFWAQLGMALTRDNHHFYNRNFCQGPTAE
- METHOD: TLR9 inhibition reporter assay (HEK-Blue SEAP);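 note: SEAP driven by an IFN-β minimal promoter with NF-κB and AP-1 sites, read after 22 h, compounds dosed 0.05 nM–50 µM, inhibition scaled between agonist plus DMSO and reference-inhibitor wells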
- CONDITION_INFO: read-out: TLR9 IC50; HEK-Blue cells overexpressing human TLR9, ODN2006 5 nM stimulation, SEAP reporter
pIC50: −log10 of the molar value.
Label yes (1) when pIC50 is at or above 6; anything below gets no (0).

CC(C)c1c(-c2cn(C)c3ncccc23)[nH]c2ccc(C3CCC(N4CC5(C4)CS(=O)(=O)C5)CC3)nc12 (stereo not drawn) [Example 256]	yes (1)
Cc1c(-c2[nH]c3ccc(N4CCN(CCN5CCOCC5)C(=O)C4)nc3c2C(C)C)cn2ncnc2c1C [Example 154]	no (0)
CC(C)c1c(-c2cn(C)c3ncncc23)[nH]c2ccc(N3CCN(C(C)C)CC3)nc12	no (0)
CNC1CCC(c2ccc3[nH]c(-c4cn(CC#N)c5ncccc45)c(C(C)C)c3n2)CC1 (stereo not drawn) [Example 263]	yes (1)

# input Assess whether reported pIC50 for `Cc1c(-c2[nH]c3ccc(N4CCN(C(=O)CN5CCCC5)CC4)nc3c2C(C)C)cn2ncnc2c1C` sits at 6 or higher.
# output no (0)

# input Check this compound for pIC50 at or above 6: `CC(C)c1c(-c2cn(C)c3ncncc23)[nH]c2ccc(N3CCN(C)CC3)nc12`
# output no (0)

# input Could you tell me if the measured pIC50 of CC(C)c1c(-c2cn(C)c3ncccc23)[nH]c2ccc(N3CC(N)C3)nc12 [Example 32] reaches 6 or more?
# output no (0)

# input In plain terms: is recorded pIC50 at least 6 for COc1cc(-c2[nH]c3cc(C)c(C4CCC(N(C)CCC#N)CC4)nc3c2C(C)C)cn2ncnc12 (stereo not drawn) [Example 340] ?
# output no (0)

# input Record CCN(C)C1CCC(c2ccc3[nH]c(-c4cn5ncnc5c(C)c4C)c(C(C)C)c3n2)CC1 (stereo not drawn) [Example 390] ; criterion: pIC50 no lower than 6. Met?
# output no (0)

# input Kindly determine if pIC50 recorded for CNC1CCC(c2ccc3[nH]c(-c4cc(OC)c5ncnn5c4)c(C(C)C)c3n2)CC1 (stereo not drawn) [Example 188] is above or exactly 6.
# output yes (1)

# input Does pIC50 meet or surpass 6 for COCCNC1CCC(c2nc3c(C(C)C)c(-c4cc(OC)c5ncnn5c4)[nH]c3cc2C)CC1 (stereo not drawn) [Example 327] ?
# output no (0)

# input Textbook exercise: given the entry `COc1cc(-c2[nH]c3ccc(N4CCN(CC5(C)COC5)CC4)nc3c2C(C)C)cn2ncnc12` , state whether its pIC50 is greater than or equal to 6.
# output no (0)

# input Threshold query (pIC50 >= 6) on Cc1c(-c2[nH]c3ccc(C4CCC(N(C)CC(=O)N(C)C)CC4)nc3c2C(C)C)cn2ncnc2c1C (stereo not drawn)
# output no (0)

# input Item `Cc1c(-c2[nH]c3ccc(N4CCN(CC5(C)COC5)CC4)nc3c2C(C)C)cn2ncnc2c1C` with pIC50 of 6 or above?
# output no (0)

# input Say whether Cc1c(-c2[nH]c3ccc(N4CCCC(NC5COC5)C4)nc3c2C(C)C)cn2ncnc2c1C (stereo not drawn) shows pIC50 of 6 or more.
# output no (0)

# input Given the entry `Cc1c(-c2[nH]c3ccc(N4CCC(N(Cc5c[nH]nn5)Cc5c[nH]nn5)CC4)nc3c2C(C)C)cn2ncnc2c1C` , answer whether its pIC50 meets or surpasses 6.
# output no (0)

# input Answer whether pIC50 of `Cc1c(-c2[nH]c3ccc(N4CCN(C(=O)CNCCO)CC4)nc3c2C(C)C)cn2ncnc2c1C` is greater than or equal to 6.
# output no (0)

# input Decide: pIC50 of `COc1cc(-c2[nH]c3ccc(C4CCC(=O)CC4)nc3c2C(C)C)cn2ncnc12` >= 6?
# output no (0)

# input Form field: pIC50 at least 6? Entry: `CCN(CC)C1CCN(c2ccc3[nH]c(-c4cn5ncnc5c(C)c4C)c(C(C)C)c3n2)CC1`
# output no (0)

# input Does the compound `COc1cc(-c2[nH]c3ccc(N4CCN(CCCC(F)(F)F)CC4)nc3c2C(C)C)cn2ncnc12` have recorded pIC50 that is 6 or more?
# output no (0)

###

- EXPERIMENTAL_TARGET: human TLR9 (Homo sapiens (Human))
- METHOD: TLR9 inhibition reporter assay (HEK-Blue SEAP)
- CONDITION_INFO: TLR9 IC50, HEK-Blue human TLR9 cells, ODN2006 5 nM
# IC50 per record follows
Supply the numeric figure in µM, leaving out any unit text.

The cases that follow already have their IC50 on record.
[2H]C([2H])(C(=O)N1C([2H])([2H])C([2H])([2H])N(c2ccc3[nH]c(-c4cn5ncnc5c(C)c4C)c(C(C)C)c3n2)C([2H])([2H])C1([2H])[2H])N(C)C (single isomer, unassigned)	14.7
[2H]C([2H])([2H])NCCC(=O)N1C[C@H](C)N(c2ccc3[nH]c(-c4cn5ncnc5c(C)c4C)c(C(C)C)c3n2)C[C@H]1C	3.1
[2H]C1([2H])N(C(=O)CN(C)C)C([2H])([2H])C([2H])([2H])N(c2ccc3[nH]c(-c4cn5ncnc5c(C)c4C)c(C(C)C)c3n2)C1([2H])[2H] (single isomer, unassigned)	7.13
[2H]C([2H])([2H])N(C([2H])([2H])[2H])C([2H])([2H])C(=O)N1C([2H])([2H])C([2H])([2H])N(c2ccc3[nH]c(-c4cn5ncnc5c(C)c4C)c(C(C)C)c3n2)C([2H])([2H])C1([2H])[2H] (single isomer, unassigned)	18
[2H]C([2H])([2H])N(CC(=O)N1C([2H])([2H])C([2H])([2H])N(c2ccc3[nH]c(-c4cn5ncnc5c(C)c4C)c(C(C)C)c3n2)C([2H])([2H])C1([2H])[2H])C([2H])([2H])[2H] (single isomer, unassigned)	7.31

# input For the molecule `[2H]C([2H])([2H])NCC(=O)N1CCN(c2ccc3[nH]c(-c4cn5ncnc5c(C)c4C)c(C(C)C)c3n2)CC1` , give its reported IC50.
# output 7.86

# input Please give the documented IC50 of [2H]C([2H])(C(=O)N1CCN(c2ccc3[nH]c(-c4cn5ncnc5c(C)c4C)c(C(C)C)c3n2)CC1)N(C)C (single isomer, unassigned)
# output 9.84

# input Complete the entry with IC50 for [2H]C([2H])([2H])N(CC(=O)N1CCN(c2ccc3[nH]c(-c4cn5ncnc5c(C)c4C)c(C(C)C)c3n2)CC1)C([2H])([2H])[2H] (single isomer, unassigned)
# output 8.55

# input Note IC50 for the molecule shown: `[2H]C1([2H])NC([2H])([2H])C([2H])([2H])N(c2ccc3[nH]c(-c4cn5ncnc5c(C)c4C)c(C(C)C)c3n2)C1([2H])[2H]`
# output 4.4

# input # return recorded IC50 for entry `[2H]C([2H])([2H])N(CC(=O)N1CCN(c2ccc3[nH]c(-c4cn5ncnc5c(C)c4C)c(C(C)C)c3n2)[C@H](C)C1)C([2H])([2H])[2H]`
# output 9.89

# input Return IC50 (reported value) for this molecule: [2H]C([2H])([2H])N(C([2H])([2H])[2H])C([2H])([2H])C(=O)N1CCN(c2ccc3[nH]c(-c4cn5ncnc5c(C)c4C)c(C(C)C)c3n2)CC1 (single isomer, unassigned)
# output 12.2

# input Give the measured IC50 for `[2H]C([2H])([2H])N(CCC(=O)N1C[C@H](C)N(c2ccc3[nH]c(-c4cn5ncnc5c(C)c4C)c(C(C)C)c3n2)C[C@H]1C)C([2H])([2H])[2H]`
# output 6.48
